Target: human GlyT1c transporter (Homo sapiens (Human))
Test: Radioligand binding assay using recombinant CHO cell membranes expressing human GlyT1
Conditions: radioligand [3H]-(R)-NPTS (examples 1-19, 22-52, 54-87), read-out: radioligand binding Kiapp
Structures can show the parent of a compound that is named as a salt.
property name: Ki

Some compounds with known Ki results, for comparison:
1) O=S(=O)(Cc1ccccc1)NCCOc1ccc2c(c1)C(C1(c3ccc(Cl)cc3)CCC1)NCC2 (stereo not shown) [Example 32, hydrochloride] :: ≤ 10000 nM
2) O=S(=O)(NCCOc1ccc2c(c1)C(C1(c3ccc(Cl)cc3)CCC1)NCC2)c1ccc(Cl)nc1 (stereo not shown) [Example 29, hydrochloride] :: ≤ 1000 nM
3) CCCS(=O)(=O)NCCOc1ccc2c(c1)C(C1(c3ccc(F)cc3)CCC1)NCC2 (stereo not shown) [Example 65, hydrochloride] :: ≤ 100 nM

(Q) Record request: Ki value, item O=S(=O)(NCCOc1ccc2c(c1)C(C1(c3ccc(Cl)cc3)CCC1)NCC2)C1CC1 (stereo not shown) [Example 28, hydrochloride]
(A) ≤ 100 nM

====

Below, each entry is listed alongside its reported pKi.
Molecular target: human GlyT1c transporter (Homo sapiens (Human), UniProt P48067)
Sequence (P48067 whole entry): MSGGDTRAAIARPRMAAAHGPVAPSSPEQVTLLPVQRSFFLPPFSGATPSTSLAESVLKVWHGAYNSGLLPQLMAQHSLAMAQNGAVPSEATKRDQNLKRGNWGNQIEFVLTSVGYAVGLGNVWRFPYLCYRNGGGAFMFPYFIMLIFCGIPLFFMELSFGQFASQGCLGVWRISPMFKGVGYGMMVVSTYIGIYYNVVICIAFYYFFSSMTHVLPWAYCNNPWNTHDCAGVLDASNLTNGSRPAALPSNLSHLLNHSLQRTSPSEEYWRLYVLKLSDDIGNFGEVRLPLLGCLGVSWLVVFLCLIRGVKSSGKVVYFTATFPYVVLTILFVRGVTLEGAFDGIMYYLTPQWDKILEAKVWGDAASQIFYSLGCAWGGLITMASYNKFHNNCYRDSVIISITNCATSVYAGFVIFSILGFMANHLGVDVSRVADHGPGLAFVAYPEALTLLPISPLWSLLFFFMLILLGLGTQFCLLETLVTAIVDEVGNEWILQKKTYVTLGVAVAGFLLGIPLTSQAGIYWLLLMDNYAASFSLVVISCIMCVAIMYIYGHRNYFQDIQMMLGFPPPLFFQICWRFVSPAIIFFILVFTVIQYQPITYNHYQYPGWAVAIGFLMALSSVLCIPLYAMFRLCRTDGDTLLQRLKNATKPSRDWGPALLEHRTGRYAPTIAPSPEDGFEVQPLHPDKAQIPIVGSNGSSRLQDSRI
Test: Radioligand binding assay using recombinant CHO cell membranes expressing human GlyT1
Conditions: radioligand [3H]-(R)-NPTS (examples 1-19, 22-52, 54-87), read-out: radioligand binding Kiapp
pKi: −log10 of the molar value. Structures can show the parent of a compound that is named as a salt.

1. O=S(=O)(NCCOc1ccc2c(c1)C(C1(c3ccc(Cl)cc3)CCC1)NCC2)c1cccc(Cl)c1 (stereo not drawn) [Example 26, hydrochloride] :: ≥ 5.00
2. O=S(=O)(NCCOc1ccc2c(c1)C(C1(c3ccc(Cl)cc3)CCC1)NCC2)c1cccs1 (stereo not drawn) [Example 17, hydrochloride] :: ≥ 6.00
3. CS(=O)(=O)NCCOc1ccc2c(c1)C(C1(c3ccc(Cl)cc3)CCC1)NCC2 (stereo not drawn) :: ≥ 7.00

Consider the record given below.
(Q) Record request: pKi value, item COc1cccc(S(=O)(=O)NCCOc2ccc3c(c2)C(C2(c4ccc(Cl)cc4)CCC2)NCC3)c1 (stereo not drawn) [Example 19, hydrochloride]
(A) ≥ 5.00

====

Molecular target: human GlyT1c (Homo sapiens (Human), UniProt P48067)
Sequence (P48067 whole entry): as above
Experiment: [3H]-Glycine uptake into recombinant CHO cells expressing human GlyT1
Assay type: cell-based
Details: hGlyT1c_5_CHO cells, 200 nM [3H]-glycine
Where a name gives a salt, the structure may show the parent alone.
property name: IC50

Some molecules with known IC50 results, for comparison:
1. CCCS(=O)(=O)NCCOc1ccc2c(c1)C(C1(c3ccc(Cl)cc3)CCC1)NCC2(C)C (centres unmarked) [Example 67, hydrochloride] :: ≤ 100 nM
2. O=S(=O)(NCCOc1ccc2c(c1)C(C1(c3cccc(F)c3)CCC1)NCC2)c1cccnc1 (centres unmarked) [Example 101, dihydrochloride] :: ≤ 1000 nM
3. CCNCCCS(=O)(=O)NCCOc1ccc2c(c1)C(C1(c3ccc(Cl)cc3)CCC1)NCC2 (centres unmarked) [Example 187] :: ≤ 10000 nM

Consider the record given below.
(Q) Fill in the recorded IC50 for this molecule, with human GlyT1c (Homo sapiens (Human), UniProt P48067) as test system: O=S(=O)(NCCOc1cc2c(cc1F)CCNC2C1(c2ccc(Cl)cc2)CCC1)c1cccnc1 (centres unmarked) [Example 14, hydrochloride]
(A) ≤ 100 nM

====

Target: human GlyT1c (Homo sapiens (Human), UniProt P48067)
Test: [3H]-Glycine uptake into recombinant CHO cells expressing human GlyT1
Type: cell-based
Details: hGlyT1c_5_CHO cells, 200 nM [3H]-glycine
Structures can show the parent of a compound that is named as a salt.
property name: IC50

1. N#Cc1ccccc1S(=O)(=O)NCCOc1ccc2c(c1)C(C1(c3ccc(Cl)cc3)CCC1)NCC2 (stereo not shown) [Example 23, hydrochloride] :: ≤ 10000 nM
2. COc1ccc(S(=O)(=O)NCCOc2ccc3c(c2)C(C2(c4ccc(Cl)cc4)CCC2)NCC3)cc1 (stereo not shown) [Example 31, hydrochloride] :: ≤ 1000 nM
3. CCCS(=O)(=O)NCCOc1cc2c(cc1F)CCNC2C1(c2ccc(Cl)cc2)CCC1 (stereo not shown) [Example 15, hydrochloride] :: ≤ 100 nM

(Q) Record request: IC50 value, item CC(C)CS(=O)(=O)NCCOc1ccc2c(c1)C(C1(c3ccc(Cl)cc3)CCC1)NCC2 (stereo not shown) [Example 8, hydrochloride]
(A) ≤ 100 nM

====

Target: human GlyT1c (Homo sapiens (Human), UniProt P48067)
Test: [3H]-Glycine uptake into recombinant CHO cells expressing human GlyT1
Type: cell-based
Details: hGlyT1c_5_CHO cells, 200 nM [3H]-glycine
Structures can show the parent of a compound that is named as a salt.
property name: IC50

Some compounds with known IC50 results, for comparison:
1. O=S(=O)(NCCOc1ccc2c(c1)C(C1(c3ccc(Cl)cc3)CCC1)NCC2)C1CC1 (stereo not drawn) [Example 28, hydrochloride] :: ≤ 100 nM
2. CC(C)(C)CS(=O)(=O)NCCOc1ccc2c(c1)C(C1(c3ccc(Cl)cc3)CCC1)NCC2 (stereo not drawn) [Example 155, hydrochloride] :: ≤ 10000 nM
3. COCCNS(=O)(=O)CCCOc1ccc2c(c1)C(C1(c3ccc(Cl)cc3)CCC1)NCC2 (stereo not drawn) [Example 135, hydrochloride] :: ≤ 100000 nM
4. CC(C)S(=O)(=O)NCCOc1ccc2c(c1)C(C1(c3ccc(Cl)cc3)CCC1)NCC2 (stereo not drawn) [Example 38, hydrochloride] :: ≤ 100 nM
5. CCCS(=O)(=O)NCCOc1ccc2c(c1)C(C1(c3ccc(F)cc3)CCC1)N(C(=N)N)CC2 (stereo not drawn) [Example 72, acetate] :: ≤ 1000 nM

(Q) Record request: IC50 value, item CCCNC(=O)NCCOc1ccc2c(c1)C(C1(c3ccc(Cl)cc3)CCC1)NCC2 (stereo not drawn) [Example 33, hydrochloride]
(A) ≤ 10000 nM

(Q) Record request: IC50 value, item CCCS(=O)(=O)NCCOc1ccc2c(c1)C(C1(c3cccc(Cl)c3)CCC1)N(CC#N)CC2 (stereo not drawn) [Example 77]
(A) ≤ 1000 nM

(Q) Record request: IC50 value, item CCCS(=O)(=O)NCCOc1ccc2c(c1)C(C1(c3ccc(F)cc3)CCC1)NCC2 (stereo not drawn) [Example 65, hydrochloride]
(A) ≤ 100 nM

(Q) Record request: IC50 value, item CN(C)CCCS(=O)(=O)NCCOc1ccc2c(c1)C(C1(c3ccc(Cl)cc3)CCC1)NCC2 (stereo not drawn) [Example 181]
(A) ≤ 10000 nM

(Q) Record request: IC50 value, item CCNC(=O)NCCS(=O)(=O)NCCOc1ccc2c(c1)C(C1(c3ccc(Cl)cc3)CCC1)NCC2 (stereo not drawn) [Example 202]
(A) ≤ 10000 nM

(Q) Record request: IC50 value, item CCCS(=O)(=O)NCCOc1ccc2c(c1)C(C1(c3ccc(F)cc3)CCC1)N(c1ncc[nH]1)CC2 (stereo not drawn) [Example 79]
(A) ≤ 1000 nM

(Q) Record request: IC50 value, item CC(C)(C)OC(=O)N1CCN(S(=O)(=O)CCCOc2ccc3c(c2)C(C2(c4ccc(Cl)cc4)CCC2)NCC3)CC1 (stereo not drawn) [Example 123]
(A) ≤ 100000 nM

(Q) Record request: IC50 value, item O=S(=O)(NCCOc1ccc2c(c1)C(C1(c3ccc(Cl)cc3)CCC1)NCC2)C1CCCNC1 (stereo not drawn) [Example 61, dihydrochloride]
(A) ≤ 100 nM

(Q) Record request: IC50 value, item Nc1ccc(S(=O)(=O)NCCOc2ccc3c(c2)C(C2(c4ccc(Cl)cc4)CCC2)NCC3)cn1 (stereo not drawn) [Example 165]
(A) ≤ 10000 nM

(Q) Record request: IC50 value, item O=S(=O)(NCCOc1cc2c(cc1F)CCNC2C1(c2ccc(Cl)cc2)CCC1)c1ccccc1 (stereo not drawn) [Example 13, hydrochloride]
(A) ≤ 1000 nM

====

Target: human GlyT1c (Homo sapiens (Human), UniProt P48067)
Assay: [3H]-Glycine uptake into recombinant CHO cells expressing human GlyT1
Assay type: cell-based
Conditions: hGlyT1c_5_CHO cells, 200 nM [3H]-glycine
pIC50: −log10 of the molar value. Structures can show the parent of a compound that is named as a salt.
Below, each entry is listed alongside its reported pIC50.

Some compounds with known pIC50 results, for comparison:
1) CCCS(=O)(=O)NCCOc1ccc2c(c1)C(C1(c3ccc(Cl)cc3)CCC1)NCC2 (stereo not shown) [Example 4, hydrochloride] :: ≥ 7.00
2) CCCS(=O)(=O)NCCN(CCOc1ccc2c(c1)C(C1(c3ccc(Cl)cc3)CCC1)NCC2)S(=O)(=O)CCC (stereo not shown) :: ≥ 6.00
3) CN(C)CCNS(=O)(=O)CCCOc1ccc2c(c1)C(C1(c3ccc(Cl)cc3)CCC1)NCC2 (stereo not shown) [Example 132, dihydrochloride] :: ≥ 5.00

Consider the record given below.
(Q) Record request: pIC50 value, item CCCS(=O)(=O)NCCOc1ccc2c(c1)C(C1(c3ccc(Cl)cc3)CC1)NCC2 (stereo not shown) [Example 87, hydrochloride]
(A) ≥ 7.00
